FYI, the data here is from patent US6841563B1.

# TEST METHOD NOTES: Intravenous administration to cattle: serum non-esterified fatty acid (NEFA) and serum urea nitrogen (SUN) levels
# Type: in vivo
# CONDITION DESCRIPTION: 40 μg per kilogram i.v.; T+15 min minus T=0; mean of five animals
Hi all, reminder that labels come from ΔNEFA 15 Min., split as 1: < 100 µmol/L; 2: ≥ 100 µmol/L and < 300 µmol/L; 3: ≥ 300 µmol/L

Some solved entries appear below for comparison.
Please report the category associated with CC(C)(Cc1ccc(Oc2ccc(Cl)cc2C(N)=O)cc1)NC[C@H](O)COc1cccc2[nH]ccc12 , nothing else. 1

Also check CC(C)(Cc1ccc(Oc2ncccc2C(N)=O)cc1)NC[C@H](O)COc1cccc2[nH]ccc12 1

Another molecule to check: CC(C)(Cc1ccc(Oc2cccc(Cl)c2C(N)=O)cc1)NC[C@H](O)COc1cccc2[nH]ccc12 1

Now consider CC(C)(Cc1ccc(Oc2cccc(Cl)c2C(N)=O)cc1)NC[C@H](O)COc1cccc2[nH]c(C#N)cc12 . 2

And the next one, Cc1c[nH]c2cccc(OC[C@@H](O)CNC(C)(C)Cc3ccc(Oc4ncccc4C(N)=O)cc3)c12 ? 3

---
Could you place CC(C)(Cc1ccc(Oc2ccc(C(N)=O)cn2)cc1)NC[C@H](O)COc1cccc2[nH]c(=O)[nH]c12 in its proper category? Many thanks. 2

// next record CC(C)(Cc1ccc(Oc2ncccc2C(N)=O)cc1)NC[C@H](O)COc1cccc2[nH]c(=O)[nH]c12 3

And then CC(C)(Cc1ccc(Oc2ccc(C(N)=O)cn2)cc1)NC[C@H](O)COc1cccc2[nH]c(=S)[nH]c12 , what is it? 3

# iterate: CC(C)(Cc1ccc(Oc2ccc(C(N)=O)cn2)cc1)NC[C@H](O)COc1cccc2[nH]ccc12 2

Same again, this time with CC(C)(Cc1ccc(Oc2ccc(C(N)=O)cn2)cc1)NC[C@H](O)COc1cccc2[nH]ncc12 3

Entry CC(C)(Cc1ccc(Oc2ncccc2C(N)=O)cc1)NC[C@H](O)COc1cccc2[nH]ncc12 please 2

Same lookup for CC(C)(Cc1ccc(Oc2ncccc2C(N)=O)cc1)NC[C@H](O)COc1cccc2[nH]c(=S)[nH]c12 , please. 2
